This section presents compounds with their documented TGI values.
test system: UACC-257 melanoma; assay: NCI tumour cell line growth inhibition, 48 h

Some compounds with known TGI results, for comparison:
COMPOUND: CC1=C(C(=O)OC(C)C)C(c2cccc([N+](=O)[O-])c2)C(C(=O)OC(CO[N+](=O)[O-])CO[N+](=O)[O-])=C(C)N1 (configuration not stated)
VALUE_OBSERVED: 13.3 µM
//
COMPOUND: CN(NC(=O)/C(=C/C=C/c1ccccc1)NC(=O)c1ccccc1)C1=C(Cl)C(=O)[N+](c2ccccc2)=CC1
VALUE_OBSERVED: > 100 µM
//
COMPOUND: CC(=O)Nc1[nH]c(=O)[nH]c(=O)c1N(C(C)=O)C(C)=O
VALUE_OBSERVED: > 100 µM
//
COMPOUND: CCCC/C(C)=N/NC(N)=S
VALUE_OBSERVED: > 100 µM
//
COMPOUND: Cn1c(=O)n2n(c1=O)C1C(=CC2)C2C=CC1n1c(=O)n(C)c(=O)n12 (configuration not stated)
VALUE_OBSERVED: > 100 µM

Now for a further compound.
`CC1(C)CN=C(c2ccc3ccccc3c2O)N1` has a reported TGI of > 100 µM
